// endpoint Kd / system UniProtKB Q8NB16
Sequence (Q8NB16 whole entry): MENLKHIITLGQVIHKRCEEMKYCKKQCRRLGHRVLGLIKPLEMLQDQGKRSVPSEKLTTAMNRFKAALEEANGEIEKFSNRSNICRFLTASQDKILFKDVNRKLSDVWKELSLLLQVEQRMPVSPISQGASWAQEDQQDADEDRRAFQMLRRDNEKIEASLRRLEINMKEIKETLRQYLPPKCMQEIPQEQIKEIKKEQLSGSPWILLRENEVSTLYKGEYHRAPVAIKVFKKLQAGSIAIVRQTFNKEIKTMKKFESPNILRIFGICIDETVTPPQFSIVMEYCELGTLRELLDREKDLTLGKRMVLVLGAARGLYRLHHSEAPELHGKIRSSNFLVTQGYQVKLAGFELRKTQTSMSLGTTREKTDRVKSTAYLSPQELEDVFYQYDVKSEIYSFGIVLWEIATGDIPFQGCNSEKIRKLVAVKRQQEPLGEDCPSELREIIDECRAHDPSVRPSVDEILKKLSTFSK
readout_type: Kd (nM)

1 = Nc1ncc(-c2cnn(C3CCN(CCc4cn(C5CCN(C(=O)CNc6ccc7c(c6)C(=O)N(C6CCC(=O)NC6=O)C7=O)CC5)nn4)CC3)c2)nc1C(=O)O[C@@H](C(=O)Nc1ccc(F)cc1)c1ccccc1 (stereo partly drawn)
2 = Nc1ncc(-c2ccc(N3CCN(CCOCCOCCNC(=O)COc4cccc5c4C(=O)N(C4CCC(=O)NC4=O)C5=O)CC3)nc2)nc1C(=O)OC(C(=O)Nc1ccc(F)cc1)c1ccccc1 (stereo not drawn)
3 = Nc1ncc(-c2cnn(C3CCN(CCCN4CCN(C(=O)COc5ccc6c(c5)C(=O)N(C5CCC(=O)NC5=O)C6=O)CC4)CC3)c2)nc1C(=O)O[C@@H](C(=O)Nc1ccc(F)cc1)c1ccccc1Cl (stereo partly drawn)
Exercise: Rank the items in ascending order with respect to Kd. Output the labels ranked as instructed.
Solution: 3, 1, 2
(3: 0.98 nM, 1: 1.8 nM, 2: 43 nM)
